Attribute: pIC50
- TEST_TARGET: β1i (Homo sapiens)
- TEST_METHOD_NOTES: IC50 against β1i of human immunoproteasome (Ac-PAL-AMC)
pIC50: −log10 of the molar value.
ASSAY_READOUT: pIC50

# CHEMICAL_SMILES, ASSAY_READOUT, RESULT
rows = [
    ("CC(C)(C)NC(=O)C[C@H](NC(=O)CCc1ccccc1)C(=O)NCCNC(=O)c1cccc(-c2ccccc2)c1", "pIC50", "< 4.30"),
    ("CC(C)(C)NC(=O)C[C@H](NC(=O)CCc1ccccc1)C(=O)NCCNC(=O)c1ccc(-c2ccccc2)cc1", "pIC50", "< 4.30"),
]

====

- TEST_TARGET: human β5c (Homo sapiens, UniProt P20618+P28074)
- TEST_METHOD_NOTES: IC50 determination against human β5c of c-20S
- RUN_PARAMETERS: read-out: IC50 against β5c
pIC50: −log10 of the molar value.
ASSAY_READOUT: pIC50

# MOLECULE, TEST_TARGET, ASSAY_READOUT, READOUT_NUMBER
measured = [
    ("Cc1ccc(S(=O)(=O)N[C@@H](CC(=O)NC(C)(C)C)C(=O)NCCNC(=O)c2cc(-c3ccccc3F)ccc2F)cc1 [PKS21221]", "human β5c (Homo sapiens, UniProt P20618+P28074)", "pIC50", 6.96),
]

====

- TEST_TARGET: β5i (i-20S) (Homo sapiens, UniProt P20618+P28062)
- TEST_METHOD_NOTES: Kinetics studies of modality of inhibition against β5i
- RUN_PARAMETERS: fit to equation for noncompetitive inhibitors

# COMPOUND, TEST_TARGET, Ki, nM
rows = [
    ("CC(C)(C)NC(=O)C[C@H](NC(=O)CCc1ccccc1)C(=O)NCCNC(=O)c1cccc(-c2ccccc2)c1 [PKS21004]", "β5i (i-20S) (Homo sapiens, UniProt P20618+P28062)", 77),
]

====

- TEST_TARGET: β5i in Karpas 1106P cells (Homo sapiens, UniProt P20618+P28062)
- TEST_METHOD_NOTES: Intracellular β5i activity in Karpas 1106P cells, (Ac-ANW)2-R110
pIC50: −log10 of the molar value.

# CHEMICAL_SMILES, TEST_TARGET, pIC50
records = [
    ("Cc1ccc(S(=O)(=O)N[C@@H](CC(=O)NC(C)(C)C)C(=O)NCCNC(=O)c2cc(-c3ccccc3F)ccc2F)cc1", "β5i in Karpas 1106P cells (Homo sapiens, UniProt P20618+P28062)", 6.76),
]

====

- TEST_TARGET: human β5i (Homo sapiens, UniProt P20618+P28062)
- TEST_METHOD_NOTES: IC50 determination against human β5i of i-20S
- RUN_PARAMETERS: read-out: IC50 against human β5i
pIC50: −log10 of the molar value.
ASSAY_READOUT: pIC50

# CHEMICAL_SMILES, READOUT_NUMBER
records = [
    ("CC(C)(C)NC(=O)C[C@H](NC(=O)CCc1ccccc1)C(=O)NCCNC(=O)c1cc(-c2ccccc2F)ccc1F", 7.82),
    ("CC(C)(C)NC(=O)C[C@H](NC(=O)CCc1ccccc1)C(=O)NCCNC(=O)c1cccc2ccccc12", 6.43),
]

====

- TEST_TARGET: β5c in HepG2 cells (Homo sapiens, UniProt P20618+P28074)
- TEST_METHOD_NOTES: Intracellular β5c activity in HepG2 cells, suc-LLVY-luciferin
pIC50: −log10 of the molar value.

# CHEMICAL_SMILES, TEST_TARGET, pIC50
rows = [
    ("Cc1ccc(S(=O)(=O)N[C@@H](CC(=O)NC(C)(C)C)C(=O)NCCNC(=O)c2cc(-c3ccccc3F)ccc2F)cc1", "β5c in HepG2 cells (Homo sapiens, UniProt P20618+P28074)", 5.74),
]

====

- TEST_TARGET: β2i (Homo sapiens)
- TEST_METHOD_NOTES: IC50 against β2i of human immunoproteasome (Z-VLR-AMC)
pIC50: −log10 of the molar value.

# MOLECULE, pIC50
data = [
    ("CC(C)(C)NC(=O)C[C@H](NC(=O)CCc1ccccc1)C(=O)NCCNC(=O)c1cccc(-c2ccccc2)c1 [PKS21004]", "< 4.30"),
    ("CC(C)(C)NC(=O)C[C@H](NC(=O)CCc1ccccc1)C(=O)NCCNC(=O)c1ccc(-c2ccccc2)cc1 [PKS21003]", "< 4.30"),
]

====

- TEST_TARGET: human β5i (Homo sapiens, UniProt P20618+P28062)
- TEST_METHOD_NOTES: IC50 determination against human β5i of i-20S
Listed compounds paired with reported selectivity for β5i over β5c

# COMPOUND, UNIT_ABBREV, selectivity for β5i over β5c
data = [
    ("CC(C)(C)NC(=O)C[C@H](NC(=O)OC(C)(C)C)C(=O)NCCNC(=O)c1cc(-c2ccccc2F)ccc1F [PKS21277]", "fold", 36),
    ("CC(C)(C)NC(=O)C[C@H](NC(=O)CCc1ccccc1)C(=O)NCCNC(=O)c1ccc2ccccc2c1 [PKS21025]", "fold", 26),
    ("CC(C)(C)NC(=O)C[C@H](NS(=O)(=O)C1CC1)C(=O)NCCNC(=O)c1cc(-c2ccccc2F)ccc1F [PKS21293]", "fold", 64),
]

====

- TEST_TARGET: β5c (c-20S) (Homo sapiens, UniProt P20618+P28074)
- TEST_METHOD_NOTES: Kinetics studies of modality of inhibition against β5c
- RUN_PARAMETERS: fit to equation for noncompetitive inhibitors
ASSAY_READOUT: Ki (nM)

# CHEMICAL_SMILES, READOUT_NUMBER
measured = [
    ("CC(C)(C)NC(=O)C[C@H](NC(=O)CCc1ccccc1)C(=O)NCCNC(=O)c1cccc(-c2ccccc2)c1", 550),
]

====

- TEST_TARGET: human β5i (Homo sapiens, UniProt P20618+P28062)
- TEST_METHOD_NOTES: IC50 determination against human β5i of i-20S
pIC50: −log10 of the molar value.
pIC50 for assorted compounds

# COMPOUND, INEQUALITY_SIGN, pIC50
data = [
    ("CC(C)(C)NC(=O)C[C@H](NC(=O)CCc1ccccc1)C(=O)NCCNC(=O)c1cccc(-c2ccccc2)c1 [PKS21004]", "=", 7.24),
    ("CC(C)(C)NC(=O)C[C@H](NC(=O)CCc1ccccc1)C(=O)NCCNC(=O)c1ccc(-c2ccccc2)cc1 [PKS21003]", "<", 4.00),
]

====

- TEST_TARGET: β1c (Homo sapiens)
- TEST_METHOD_NOTES: IC50 against β1c of human constitutive proteasome (Z-LLE-AMC)

# CHEMICAL_SMILES, IC50
data = [
    ("CC(C)(C)NC(=O)C[C@H](NC(=O)CCc1ccccc1)C(=O)NCCNC(=O)c1ccc(-c2ccccc2)cc1", "> 50 µM"),
    ("CC(C)(C)NC(=O)C[C@H](NC(=O)CCc1ccccc1)C(=O)NCCNC(=O)c1cccc(-c2ccccc2)c1", "> 50 µM"),
]

====

- TEST_TARGET: human β5c (Homo sapiens, UniProt P20618+P28074)
- TEST_METHOD_NOTES: IC50 determination against human β5c of c-20S
ASSAY_READOUT: IC50 (nM)

# CHEMICAL_SMILES, INEQUALITY_SIGN, READOUT_NUMBER
records = [
    ("CC(C)(C)NC(=O)C[C@H](NC(=O)CCc1ccccc1)C(=O)NCCNC(=O)c1ccc(-c2ccccc2)cc1", ">", 100000),
    ("CC(C)(C)NC(=O)C[C@H](NC(=O)CCc1ccccc1)C(=O)NCCNC(=O)c1cccc(-c2ccccc2)c1", "=", 326),
]
